These entries and their values trace back to patent US20240166765A1.

Target: human Tissue Factor on MDA-MB-231 cells (human, UniProt P13726 33-295)
Experiment: cell-based or functional assay
So basically: is % IL8, 6.4 nM Ab under 10%? Then YES. Not under? Then NO.

Please let me know if 25G1 (antibody, human IgG1, kappa, V domains shown) VH: QVQLVQSGAEVKKPGASVKVSCKASGYTFRSYGISWVRQAPGQGLEWMGWVAPYSGNTNYAQKLQGRVTMTTDTSTSTAYMELRSLRSDDTAVYYCARDAGTYSPYGYGMDVWGQGTTVTVSS VL: DIQMTQSPSTLSASVGDRVTITCRASHSIDSWLAWYQQKPGKAPKLLIYKASYLESGVPSRFSGSGSGTEFTLTISSLQPDDFATYYCQLFQSLPPFTFGGGTKVEIKR shows % IL8, 6.4 nM Ab below 10%.
NO

Proceed to 25A3 (antibody, human IgG1, kappa, V domains shown) VH: QVQLVQSGAEVKKPGASVKVSCKASGYTFDVYGISWVRQAPGQGLEWMGWIAPYSGNTNYAQKLQGRVTMTTDTSTSTAYMELRSLRSDDTAVYYCARDAGTYSPFGYGMDVWGQGTTVTVSS VL: DIQMTQSPSTLSASVGDRVTITCQASQSINNWLAWYQQKPGKAPKLLIYKAYNLESGVPSRFSGSGSGTEFTLTISSLQPDDFATYYCQLFQSLPPFTFGGGTKVEIKR
YES

Same question, 25A (antibody, V domains shown, Human anti-TF IgG1) VH: QVQLVQSGAEVKKPGASVKVSCKASGYTFDVYGISWVRQAPGQGLEWMGWIAPYNGNTNYAQKLQGRVTMTTDTSTSTAYMELRSLRSDDTAVYYCARDAGTYSPFGYGMDVWGQGTTVTVSS VL: DIQMTQSPSTLSASVGDRVTITCRASQSISSWLAWYQQKPGKAPKLLIYKASSLESGVPSRFSGSGSGTEFTLTISSLQPDDFATYYCQQFQSLPPFTFGGGTKVEIK this time
NO

Again, but for 43B7 (antibody, V domains shown) VH: QVQLQESGPGLVKPSQTLSLTCTVSGGSISSGQYWSWIRQHPGKGLEWIGEIYYSGSTRYNPSLKSRVTISVDTSKNQFSLKLSSVTAADTAVYYCARDAPYYYGGGYYYYMDVWGKGTTVTVSS VL: EIVLTQSPGTLSLSPGERATLSCRASESVDSSYLAWYQQKPGQAPRLLIYGADSRATGIPDRFSGSGSGTDFTLTISRLEPEDFAVYYCQQDGVVPYTFGGGTKVEIK
NO

Also 43D (antibody, V domains shown) VH: QVQLQQWGAGLLKPSETLSLTCAVYGGSLSGYYWSWIRQPPGKGLEWIGEIGASGSTRYNPSLKSRVTISVDTSKNQFSLKLSSVTAADTAVYYCARDTPYYYEGGYYYYMDVWGKGTTVTVSS VL: EIVLTQSPGTLSLSPGERATLSCRASQSVSSSYLAWYQQKPGQAPRLLIYGASSRATGIPDRFSGSGSGTDFTLTISRLEPEDFAVYYCQQVGVVPYTFGGGTKVEIK , if possible.
NO
